# System: Aphis craccivora
# Assay Overview: Insecticidal activity against Aphis craccivora (cowpea aphid) assessed as mortality measured after 24 hr
# Type: functional
Measure Name: LC50 (µM)

[[record]]
compound = "CC(C)OC1CCC([N+](=O)[O-])=C2N(Cc3ccc(Cl)nc3)CCN21 (stereo unspecified)"
measure_name = "LC50"
unit_text = "µM"
recorded_measurement = 260

[[record]]
compound = "CCCOC1CCC([N+](=O)[O-])=C2N(Cc3ccc(Cl)nc3)CCN21 (stereo unspecified)"
measure_name = "LC50"
unit_text = "µM"
recorded_measurement = 105

[[record]]
compound = "O=[N+]([O-])C1=C2N(Cc3ccc(Cl)nc3)CCN2C(O)CC1 (stereo unspecified)"
measure_name = "LC50"
unit_text = "µM"
recorded_measurement = 188

[[record]]
compound = "COC1CC(C)C([N+](=O)[O-])=C2N(Cc3ccc(Cl)nc3)CCN21 (stereo unspecified)"
measure_name = "LC50"
unit_text = "µM"
recorded_measurement = 148

[[record]]
compound = "CC1CC(O)N2CCN(Cc3ccc(Cl)nc3)C2=C1[N+](=O)[O-] (stereo unspecified)"
measure_name = "LC50"
unit_text = "µM"
recorded_measurement = 97

[[record]]
compound = "O=[N+]([O-])C1=C2N(Cc3ccc(Cl)nc3)CCN2C(OCc2ccc(Cl)nc2)CC1 (stereo unspecified)"
measure_name = "LC50"
unit_text = "µM"
recorded_measurement = 1150

